Attribution: paper PMC12951562

Reported percent of DMSO vehicle control values follow for various compounds
# TARGET DESC: SYK(SH2dom1.dom2.) (Homo sapiens, UniProt P43405)
# Construct: the SH2 domains for these targets are expressed in tandem constructs; made in house; host or cells: HEK293 (transient transfection), unpurified extract
# Type: binding
# MEASUREMENT PARAMETERS: primary screen, 10 μM
Non-standard residues stand in square brackets, D forms with d. Residues, ends and D or L forms follow the SMILES beside them. *: point of attachment. pY = N[C@@H](Cc1ccc(OP(=O)(O)O)cc1)C(=O)O; Caffeoyl = O=C(/C=C/c1ccc(O)c(O)c1)*

COMPOUND	percent of DMSO vehicle control
NC(=O)CC[C@H](NC(=O)[C@@H]1CC[C@@H]2CCN(C(=O)CCCCCC#Cc3cccc4c3CN(C3CCC(=O)NC3=O)C4=O)C[C@H](NC(=O)c3cc4cc(C(F)(F)P(=O)(O)O)ccc4[nH]3)C(=O)N21)C(=O)NC(c1ccccc1)c1ccccc1 (stereo partly drawn)	104.6%
CC[C@H](C)[C@H](NC(=O)[C@H](CCC(=O)O)NC(=O)[C@H](CCC(=O)O)NC(=O)[C@H](Cc1ccc(OP(=O)(O)O)cc1)NC(=O)/C=C/c1ccc(O)c(O)c1)C(=O)N[C@@H](CCC(=O)O)C(=O)O [Caffeic acid-pYEEIE] (Caffeoyl-[pY]EEIE-OH)	72.6±6.4%
CC(=O)N1CC[C@H]2CC[C@@H](C(=O)N[C@@H](CCC(N)=O)C(=O)NC(c3ccccc3)c3ccccc3)N2C(=O)[C@@H](NC(=O)c2cc3cc(C(F)(F)P(=O)(O)O)ccc3[nH]2)C1	121.8%
CC(C)(C)[C@H](NC(=O)/C=C/c1ccc(OP(=O)(O)O)cc1)C(=O)N1CCC[C@H]1C(=O)N(c1ccccc1)c1ccc(I)cc1	65.2±43.9%
C/C(=C\C(=O)N[C@H](C(=O)N1CCC[C@H]1C(=O)N(c1ccccc1)c1ccc(I)cc1)C(C)(C)C)c1ccc(OP(=O)(O)O)cc1	61.2±11.0%
O=C(CCl)Nc1cccc(CNC(=O)[C@H](Cc2ccc(OP(=O)(O)O)cc2)NC(=O)Cc2ccc(F)cc2)c1	61.9±4.0%
O=C(COc1ccc2cc(C(=O)Nc3ccccc3)ccc2c1)NCc1ccc(OP(=O)(O)O)c(OP(=O)(O)O)c1	66.1±28.1%
CC[C@H](C)[C@H](NC(=O)[C@H](CCC(=O)O)NC(=O)[C@H](CCC(=O)O)NC(=O)[C@H](Cc1ccc(OP(=O)(O)O)cc1)NC(C)=O)C(=O)N[C@@H](CCC(=O)O)C(N)=O [Ac-pYEEIE-NH2] (Ac-[pY]EEIE-NH2)	126.1%
CC(=O)N[C@@H](Cc1ccc(CP(=O)(O)O)cc1)C(=O)NC1(C(=O)N[C@@H](CC(N)=O)C(=O)NCCCc2c(O)ccc3ccccc23)CCCCC1	85.1±0.1%
